Molecular target: KAT6A (Homo sapiens)
Construct: expressed in transfected cells; host or cells: HeLa
Experiment: HiBit KAT6A Degradation Assessment
Format: cell-based
Details: HeLa, HeLa cells with a HiBit tagged KAT6A, 18 h of treatment
measured_endpoint: Dmax

Worked set:
molecule	Dmax
O=C1CCC(N2C(=O)c3cccc(N4CCC(CN5CCN(c6cccc(S(=O)(=O)Nc7noc8cc(Cn9cccn9)c9c(c78)OCC9)c6)CC5)CC4)c3C2=O)C(=O)N1 (centres unmarked)	50 to 75%
O=C1CC[C@H](N2Cc3cc(N4CC[C@@H](CN5CC6(CCN(c7cccc(S(=O)(=O)Nc8noc9cc(Cn%10cccn%10)c%10c(c89)OCC%10)c7)CC6)C5)C4)ccc3C2=O)C(=O)N1	> 75%
O=C1CC[C@H](N2Cc3cc(N4CC[C@@H](CN5CCC6(CC5)CN(c5cccc(S(=O)(=O)Nc7noc8cc(Cn9cccn9)c9c(c78)OCC9)c5)C6)C4)ccc3C2=O)C(=O)N1	> 75%
O=C1CCC(N2C(=O)c3ccc(N4CCC(CN5CCC(CN6CCN(c7cccc(S(=O)(=O)Nc8noc9cc(Cn%10cccn%10)c%10c(c89)OCC%10)c7)CC6)CC5)CC4)cc3C2=O)C(=O)N1 (centres unmarked)	50 to 75%

Then there is this molecule:
Lab note: `O=C1CC[C@H](N2Cc3cc(N4CC[C@@H](CN5CCC6(CC5)CCN(c5cccc(S(=O)(=O)Nc7noc8cc(Cn9cccn9)c9c(c78)OCC9)c5)CC6)C4)ccc3C2=O)C(=O)N1` gave Dmax of > 75%

====

Target: KAT6A (Homo sapiens, UniProt Q92794)
Construct: expressed in transfected cells; host or cells: HeLa
Sequence (Q92794 whole entry): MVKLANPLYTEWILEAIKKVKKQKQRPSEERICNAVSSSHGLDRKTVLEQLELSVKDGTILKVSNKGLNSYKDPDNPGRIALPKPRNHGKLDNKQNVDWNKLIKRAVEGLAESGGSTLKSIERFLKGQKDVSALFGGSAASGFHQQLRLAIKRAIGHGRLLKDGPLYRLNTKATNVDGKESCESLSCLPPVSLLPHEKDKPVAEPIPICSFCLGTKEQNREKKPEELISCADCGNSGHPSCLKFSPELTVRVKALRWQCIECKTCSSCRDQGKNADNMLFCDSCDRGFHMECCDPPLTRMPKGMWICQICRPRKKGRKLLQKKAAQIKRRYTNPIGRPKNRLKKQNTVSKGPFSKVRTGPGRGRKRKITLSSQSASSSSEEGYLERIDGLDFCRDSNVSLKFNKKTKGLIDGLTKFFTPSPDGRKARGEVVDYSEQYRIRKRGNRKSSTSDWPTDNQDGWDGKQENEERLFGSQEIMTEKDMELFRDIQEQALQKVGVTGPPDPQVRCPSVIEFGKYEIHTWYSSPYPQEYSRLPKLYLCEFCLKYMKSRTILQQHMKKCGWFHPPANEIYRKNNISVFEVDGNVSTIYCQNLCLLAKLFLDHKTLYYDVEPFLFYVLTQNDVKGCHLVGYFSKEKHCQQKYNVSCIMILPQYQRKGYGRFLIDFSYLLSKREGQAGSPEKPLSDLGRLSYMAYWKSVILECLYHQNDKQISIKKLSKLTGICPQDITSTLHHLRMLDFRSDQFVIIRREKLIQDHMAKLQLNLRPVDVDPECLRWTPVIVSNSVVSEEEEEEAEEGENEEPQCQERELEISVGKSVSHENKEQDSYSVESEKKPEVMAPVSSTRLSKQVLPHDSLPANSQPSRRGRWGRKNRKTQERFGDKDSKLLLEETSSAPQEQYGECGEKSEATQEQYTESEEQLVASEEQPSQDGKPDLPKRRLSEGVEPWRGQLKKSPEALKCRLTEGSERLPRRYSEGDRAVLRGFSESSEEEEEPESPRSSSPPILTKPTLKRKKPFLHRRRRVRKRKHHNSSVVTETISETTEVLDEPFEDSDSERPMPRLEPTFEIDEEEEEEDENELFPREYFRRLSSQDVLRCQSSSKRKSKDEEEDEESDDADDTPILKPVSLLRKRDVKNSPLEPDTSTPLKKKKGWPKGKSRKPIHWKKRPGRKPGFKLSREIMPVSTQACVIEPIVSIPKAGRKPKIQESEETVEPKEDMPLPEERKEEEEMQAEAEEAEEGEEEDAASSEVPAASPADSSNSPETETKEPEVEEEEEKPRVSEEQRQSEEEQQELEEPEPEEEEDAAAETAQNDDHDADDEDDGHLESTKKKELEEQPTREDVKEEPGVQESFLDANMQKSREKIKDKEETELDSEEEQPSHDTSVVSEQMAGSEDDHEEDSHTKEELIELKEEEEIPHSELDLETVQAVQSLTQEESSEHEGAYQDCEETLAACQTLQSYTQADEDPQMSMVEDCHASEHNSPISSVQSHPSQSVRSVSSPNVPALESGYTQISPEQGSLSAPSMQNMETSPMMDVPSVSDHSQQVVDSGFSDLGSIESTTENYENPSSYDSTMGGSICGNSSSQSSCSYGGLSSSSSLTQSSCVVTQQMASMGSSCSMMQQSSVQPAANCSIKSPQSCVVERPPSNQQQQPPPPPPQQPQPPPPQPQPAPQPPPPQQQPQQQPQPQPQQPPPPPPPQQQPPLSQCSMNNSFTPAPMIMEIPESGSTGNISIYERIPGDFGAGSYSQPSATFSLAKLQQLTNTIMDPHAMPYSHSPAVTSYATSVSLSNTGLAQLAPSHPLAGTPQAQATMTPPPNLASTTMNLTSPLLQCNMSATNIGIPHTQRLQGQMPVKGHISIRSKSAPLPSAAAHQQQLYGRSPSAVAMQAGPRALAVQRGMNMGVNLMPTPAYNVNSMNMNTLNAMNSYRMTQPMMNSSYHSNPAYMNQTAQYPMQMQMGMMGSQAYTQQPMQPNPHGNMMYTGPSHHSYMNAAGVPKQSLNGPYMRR
Experiment: HiBit KAT6A Degradation Assessment
Assay type: cell-based
Conditions: HeLa, HeLa cells with a HiBit tagged KAT6A, 24 h of treatment
Each item that follows carries a reported Dmax.

compound	value
COc1ccc(N2CC3(CCN(CC4CCN(c5ccc6c(c5)C(=O)N(C5CCC(=O)NC5=O)C6=O)CC4)CC3)C2)c(OC)c1S(=O)(=O)Nc1noc2cc(Cn3cccn3)c3c(c12)OCC3 (stereo not shown)	50 to 75%

Recorded Dmax (compound `COc1ccc(N2CC3(CCN(C[C@@H]4CCN(c5ccc6c(c5)CN([C@H]5CCC(=O)NC5=O)C6=O)C4)CC3)C2)c(OC)c1S(=O)(=O)Nc1noc2cc(Cn3cccn3)c3c(c12)OCC3` ): > 75%

====

Each entry below carries its recorded DC50.
Molecular target: KAT6A (Homo sapiens, UniProt Q92794)
Construct: expressed in transfected cells; host or cells: HeLa
Assay: HiBit KAT6A Degradation Assessment
Assay type: cell-based
Conditions: HeLa cells with a HiBit tagged KAT6A, 18 h of treatment

compound	test_system	DC50
O=C1CC[C@H](N2Cc3cc(N4CC[C@@H](CN5C[C@H]6CN(c7cccc(S(=O)(=O)Nc8noc9cc(Cn%10cccn%10)c%10c(c89)OCC%10)c7)C[C@@H]6C5)C4)ccc3C2=O)C(=O)N1	KAT6A (Homo sapiens, UniProt Q92794)	0.01 to 0.1 µM
O=C1CCC(N2C(=O)c3ccc(N4CCC(CN5CCC(CN6CCN(c7cccc(S(=O)(=O)Nc8noc9cc(Cn%10cccn%10)c%10c(c89)OCC%10)c7)CC6)CC5)C4)cc3C2=O)C(=O)N1 (centres unmarked)	KAT6A (Homo sapiens, UniProt Q92794)	< 0.01 µM
O=C1CCC(N2C(=O)c3cccc(N4CCC(CN5CCN(c6cccc(S(=O)(=O)Nc7noc8cc(Cn9cccn9)c9c(c78)OCC9)c6)CC5)CC4)c3C2=O)C(=O)N1 (centres unmarked)	KAT6A (Homo sapiens, UniProt Q92794)	0.1 to 1 µM
O=C1CC[C@H](N2Cc3cc(N4CC[C@@H](CN5CC6(CCN(c7cccc(S(=O)(=O)Nc8noc9cc(Cn%10cccn%10)c%10c(c89)OCC%10)c7)CC6)C5)C4)ccc3C2=O)C(=O)N1	KAT6A (Homo sapiens, UniProt Q92794)	0.01 to 0.1 µM

Next up:
Memo: `O=C1CC[C@H](N2Cc3cc(N4CC[C@@H](CN5CCC6(CC5)CN(c5cccc(S(=O)(=O)Nc7noc8cc(Cn9cccn9)c9c(c78)OCC9)c5)C6)C4)ccc3C2=O)C(=O)N1` , reported DC50: < 0.01 µM

====

Recorded DC50 values for a group of compounds are listed next.
Biological target: KAT6A (Homo sapiens, UniProt Q92794)
Construct: expressed in transfected cells; host or cells: HeLa
Assay: HiBit KAT6A Degradation Assessment
Assay type: cell-based
Details: HeLa cells with a HiBit tagged KAT6A, 18 h of treatment

Examples from the recorded data:
compound	DC50
O=C1CCC(N2C(=O)c3ccc(N4CCC(CN5CCC(CN6CCN(c7cccc(S(=O)(=O)Nc8noc9cc(Cn%10cccn%10)c%10c(c89)OCC%10)c7)CC6)CC5)CC4)cc3C2=O)C(=O)N1 (stereo not drawn)	< 10 nM
O=C1CC[C@H](N2Cc3cc(N4CC[C@@H](CN5CCC6(CC5)CCN(c5cccc(S(=O)(=O)Nc7noc8cc(Cn9cccn9)c9c(c78)OCC9)c5)CC6)C4)ccc3C2=O)C(=O)N1	10 to 100 nM

Consider the record given below.
The reported DC50 of the compound O=C1CCC(N2C(=O)c3ccc(N4CCC5(CC4)CC(N4CCN(c6cccc(S(=O)(=O)Nc7noc8cc(Cn9cccn9)c9c(c78)OCC9)c6)CC4)C5)cc3C2=O)C(=O)N1 (stereo not drawn) was 100 to 1000 nM

====

Biological target: KAT6A (Homo sapiens)
Construct: expressed in transfected cells; host or cells: HeLa
Assay: HiBit KAT6A Degradation Assessment
Assay type: cell-based
Details: HeLa, HeLa cells with a HiBit tagged KAT6A, 18 h of treatment
We begin with a simple list: items and their reported Dmax.

Some molecules with recorded Dmax:
molecule	value
O=C1CC[C@H](N2Cc3cc(N4CC[C@@H](CNC5CCN(c6cccc(S(=O)(=O)Nc7noc8cc(Cn9cccn9)c9c(c78)OCC9)c6)CC5)C4)ccc3C2=O)C(=O)N1	25 to 50%
O=C1CCC(N2C(=O)c3ccc(N4CCC(CN5CCC(CN6CCN(c7cccc(S(=O)(=O)Nc8noc9cc(Cn%10cccn%10)c%10c(c89)OCC%10)c7)CC6)CC5)C4)cc3C2=O)C(=O)N1 (stereo not shown)	> 75%
O=C1CCC(N2C(=O)c3ccc(N4CCC5(CC4)CC(N4CCN(c6cccc(S(=O)(=O)Nc7noc8cc(Cn9cccn9)c9c(c78)OCC9)c6)CC4)C5)cc3C2=O)C(=O)N1 (stereo not shown)	50 to 75%

Alright, here's another molecule for you.
Documented Dmax of `O=C1CC[C@H](N2Cc3cc(N4CC[C@@H](CN5C[C@H]6CN(c7cccc(S(=O)(=O)Nc8noc9cc(Cn%10cccn%10)c%10c(c89)OCC%10)c7)C[C@@H]6C5)C4)ccc3C2=O)C(=O)N1` : > 75%

====

Target: KAT6A (Homo sapiens, UniProt Q92794)
Construct: expressed in transfected cells; host or cells: HeLa
Experiment: HiBit KAT6A Degradation Assessment
Format: cell-based
Conditions: HeLa cells with a HiBit tagged KAT6A, 24 h of treatment
measured_endpoint: DC50

Answered cases to consult:
compound	DC50
COc1c(N2CC3(CCN(C[C@@H]4CCN(c5ccc6c(c5)CN([C@H]5CCC(=O)NC5=O)C6=O)C4)CC3)C2)cccc1S(=O)(=O)Nc1noc2cc(Cn3cccn3)c3c(c12)OCC3 [Example 13]	< 10 nM
O=C1CC[C@H](N2Cc3cc(N4CC[C@@H](CN5CCC6(CC5)CN(c5ccc(S(=O)(=O)Nc7noc8cc(Cn9cccn9)c9c(c78)OCC9)cc5)C6)C4)ccc3C2=O)C(=O)N1 [Example 15]	10 to 100 nM
O=C1CC[C@H](N2Cc3cc(N4CC[C@@H](CN5CCC6(CC5)CN(c5cccc(S(=O)(=O)Nc7noc8cc(Cn9cccn9)c9c(c78)OCC9)c5)C6)C4)ccc3C2=O)C(=O)N1 [Example 1]	10 to 100 nM

DC50 measured on COc1ccc(N2CC3(CCN(CC4CCN(c5ccc6c(c5)C(=O)N(C5CCC(=O)NC5=O)C6=O)CC4)CC3)C2)c(OC)c1S(=O)(=O)Nc1noc2cc(Cn3cccn3)c3c(c12)OCC3 (stereo not shown) [Example 11] = < 10 nM

Please fill in: DC50 reported for COc1c(N2CC3(CCN(CC4CCN(c5ccc6c(c5)C(=O)N(C5CCC(=O)NC5=O)C6=O)CC4)CC3)C2)cccc1S(=O)(=O)Nc1noc2cc(Cn3cccn3)c3c(c12)OCC3 (stereo not shown) [Example 12] = 10 to 100 nM

Query COc1ccc(N2CC3(CCN(C[C@@H]4CCN(c5ccc6c(c5)CN([C@H]5CCC(=O)NC5=O)C6=O)C4)CC3)C2)c(OC)c1S(=O)(=O)Nc1noc2cc(Cn3cccn3)c3c(c12)OCC3 [Example 10] yields DC50 of < 10 nM

// COc1c(N2CC3(CCN(CC4CCN(c5cccc6c5C(=O)N(C5CCC(=O)NC5=O)C6=O)CC4)CC3)C2)cccc1S(=O)(=O)Nc1noc2cc(Cn3cccn3)c3c(c12)OCC3 (stereo not shown) [Example 14] : DC50 value = < 10 nM

Attribution: patent US20250161289A1
